# measured_on: Luciferin 4-monooxygenase (Photinus pyralis) (UniProt P08659)
# Sequence (P08659 whole entry, looked up): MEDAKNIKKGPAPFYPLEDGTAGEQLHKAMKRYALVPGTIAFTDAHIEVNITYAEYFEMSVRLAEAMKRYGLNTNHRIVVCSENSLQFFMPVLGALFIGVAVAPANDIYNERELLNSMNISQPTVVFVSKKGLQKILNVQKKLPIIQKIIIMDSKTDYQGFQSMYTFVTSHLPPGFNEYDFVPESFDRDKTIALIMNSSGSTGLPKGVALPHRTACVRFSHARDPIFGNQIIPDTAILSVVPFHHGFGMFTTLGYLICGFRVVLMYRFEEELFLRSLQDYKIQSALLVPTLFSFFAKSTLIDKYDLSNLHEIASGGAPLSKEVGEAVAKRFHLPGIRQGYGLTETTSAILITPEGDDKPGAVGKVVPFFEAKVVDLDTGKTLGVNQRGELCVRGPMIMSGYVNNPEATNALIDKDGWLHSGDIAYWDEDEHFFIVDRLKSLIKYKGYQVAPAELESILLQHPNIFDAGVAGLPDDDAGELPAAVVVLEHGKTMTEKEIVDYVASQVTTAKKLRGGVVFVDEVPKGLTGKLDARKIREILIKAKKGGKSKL
# assay_text: qHTS profiling assay for firefly luciferase inhibitor/activator using purifed enzyme and Km concentrations of substrates (counterscreen for miR-21 project); note: nearly all actives have a fitted effect of over 55% in size; note: potency is the fitted concentration of half-maximal effect
# condition_info: purified FLuc, luminescence inhibition; series mostly up to 57.5 µM
# Description: MLPCN Grant: 1 R21 NS059478-01 (miR-21 grant) Assay Provider: NCGC NCGC Assay Overview: Firefly (Photinus pyralis) luciferase is one of the most commonly used transcriptional reporters for a number of reasons. […] Although light produced in a bioluminescence reaction is of lower intensity than that produced during fluorescence emission, this is offset by little to no background light inherent to luminescent assays. […]
About 25,000 (6.9%) of roughly 360,000 compounds were called active. Roughly 9% stayed inconclusive and do not appear here. Shown is part of a subset that was picked to be rich in actives.
readout_label: Potency

# example entries with known answers
CN(CC(=O)Nc1c(Cl)cccc1Cl)C(=O)CC1OC(=O)c2ccccc21 (stereo not given)	inactive
CCOC(=O)c1cc(-c2ccc(OC)c(S(=O)(=O)Nc3ccc(OC)cc3OC)c2)on1	inactive
CCN(CC)c1ccc(/C=N/Nc2nc(C)cc(=O)[nH]2)cc1	19 µM (active)
Cc1ccc(Nc2nc(CSc3nnc(-c4ccncc4)n3-c3ccccc3C)cs2)cc1	21.3 µM (active)

Below: the item to evaluate.
Asked: Please supply the value of reported Potency for the item O=C(CC1Oc2ccccc2NC1=O)NCc1ccc(F)cc1 (stereo not given)
Given back: inactive

The reported measurements were obtained from PubChem BioAssay AID588342.
